- Test system: Human betaherpesvirus 5
- Assay Overview: Inhibitory activity against human cytomegalovirus (HCMV)
- Format: functional
- Condition Summary: read-out: ID50 (the source's name)
Assay Metric: IC50 (nM)

>>> value_measured("COc1cc([C@@H]2c3cc4c(cc3[C@@H](Nc3ccc(C#N)cc3)[C@H]3COC(=O)[C@]23F)OCO4)cc(OC)c1O")
760
>>> value_measured("COc1cc([C@@H]2c3cc4c(cc3[C@@H](Nc3ccc([N+](=O)[O-])cc3)[C@H]3COC(=O)[C@H]23)OCO4)cc(OC)c1O")
350
>>> value_measured("COc1cc([C@@H]2c3cc4c(cc3[C@@H](Nc3ccc(N)cc3)[C@H]3COC(=O)[C@H]23)OCO4)cc(OC)c1O")
1250
>>> value_measured("COc1cc([C@@H]2c3cc4c(cc3[C@@H](Nc3ccc(C#N)cc3)[C@H]3COC(=O)[C@H]23)OCO4)cc(OC)c1O")
620
>>> value_measured("COc1cc([C@@H]2c3cc4c(cc3[C@@H](Nc3ccc(N)cc3)[C@H]3COC(=O)[C@]23F)OCO4)cc(OC)c1O")
2540
